- System: LOC_OS01G60700-cb002
- Assay remarks: thermal shift delta Tm vs DMSO control; higher = stronger stabilization (binding);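 note: purified Escherichia coli-expressed rice kinase domain construct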
- Recorded conditions: 12.5 µM; protein concentration 2 µM
Binary classification by thermal shift delta Tm, with 1 °C as an inclusive lower bound for yes (1); all other cases are no (0).

[Q] Can CN1CCN(c2ccc(Nc3cc(-c4cccc(-n5ccc6cc(C7CC7)cc(F)c6c5=O)c4CO)cn(C)c3=O)nc2)CC1 be said to have thermal shift delta Tm at or above 1 °C?
[A] yes (1)

[Q] Can Cc1ncc(-c2ccnc(Nc3ccc(S(C)(=O)=O)cc3)n2)n1C(C)C be said to have thermal shift delta Tm at or above 1 °C?
[A] yes (1)

[Q] Can COc1cc(CCc2cc(NC(=O)c3ccc(N4CC(C)NC(C)C4)cc3)n[nH]2)cc(OC)c1 (centres undefined) be said to have thermal shift delta Tm at or above 1 °C?
[A] no (0)

[Q] Can Cc1ccc(F)c(NC(=O)Nc2ccc(-c3cccc4[nH]nc(N)c34)cc2)c1 be said to have thermal shift delta Tm at or above 1 °C?
[A] yes (1)

[Q] Can CC(C)(O)CNc1ncc(-c2ccnc(Nc3ccnc(Cl)c3)n2)c(CC2CC2)n1 be said to have thermal shift delta Tm at or above 1 °C?
[A] no (0)

[Q] Can O=c1nc(N2CCOCC2)oc2c(-c3cccc4c3sc3ccccc34)cccc12 be said to have thermal shift delta Tm at or above 1 °C?
[A] no (0)

[Q] Can O=C(Nc1c[nH]nc1-c1nc2ccc(CN3CCOCC3)cc2[nH]1)NC1CC1 be said to have thermal shift delta Tm at or above 1 °C?
[A] yes (1)

[Q] Can Cc1cc(O)c2c(c1)C(=O)c1cccc(O)c1C2=O be said to have thermal shift delta Tm at or above 1 °C?
[A] no (0)

###

- Tested on: LOC_OS04G57630-cb004
- Assay remarks: thermal shift delta Tm vs DMSO control; higher = stronger stabilization (binding)
- Recorded conditions: 12.5 µM; protein concentration 2 µM
Structures can show the parent of a compound that is named as a salt.
Binary classification by thermal shift delta Tm, with 0.4 °C as an inclusive lower bound for condition met; all other cases are condition not met.

[Q] Can CC(C)NC[C@@H](C(=O)N1CCN(c2ncnc3c2[C@H](C)C[C@H]3O)CC1)c1ccc(Cl)cc1 be said to have thermal shift delta Tm at or above 0.4 °C?
[A] condition not met

[Q] Can O=C(NOCC1CC1)c1ccc(F)c(F)c1Nc1ccc(I)cc1Cl be said to have thermal shift delta Tm at or above 0.4 °C?
[A] condition not met

[Q] Can CCCCOc1c(C(=O)c2c(F)cc(C)cc2F)c[nH]c2nncc1-2 be said to have thermal shift delta Tm at or above 0.4 °C?
[A] condition not met

[Q] Can O=c1cc(-c2ccccc2)oc2c(O)c(O)ccc12 [7,8-Dihydroxyflavone] be said to have thermal shift delta Tm at or above 0.4 °C?
[A] condition not met

[Q] Can COc1cc(Nc2ncc(F)c(Nc3ccc4c(n3)NC(=O)C(C)(C)O4)n2)cc(OC)c1OC [R406 (free base)] be said to have thermal shift delta Tm at or above 0.4 °C?
[A] condition met

[Q] Can N#Cc1cnc(Nc2cc(NC[C@H]3CNCCO3)c(C(F)(F)F)cn2)cn1 be said to have thermal shift delta Tm at or above 0.4 °C?
[A] condition not met

[Q] Can CN1CCN(C2CCN(C(=O)Nc3cc(Oc4ccc(NC(=O)C5(C(=O)Nc6ccc(F)cc6)CC5)c(F)c4)ccn3)CC2)CC1 [Golvatinib (E7050)] be said to have thermal shift delta Tm at or above 0.4 °C?
[A] condition met

[Q] Can CNC(=O)c1ccc(-c2cnc3ncc(Cc4ccc5ncccc5c4)n3n2)cc1F be said to have thermal shift delta Tm at or above 0.4 °C?
[A] condition met

[Q] Can Cc1c(C(=O)Nc2ccc(Oc3ccnc4[nH]cc(-c5ccccc5)c34)c(F)c2)c(=O)n(-c2ccc(F)cc2)n1C be said to have thermal shift delta Tm at or above 0.4 °C?
[A] condition met

[Q] Can COC(=O)Nc1ccc(-c2nc(N3CCOCC3)c3cnn(C4CCN(C(=O)OC)CC4)c3n2)cc1 be said to have thermal shift delta Tm at or above 0.4 °C?
[A] condition not met

[Q] Can COc1cc2nccc(Oc3ccc(NC(=O)C4(C(=O)Nc5ccc(F)cc5)CC4)cc3)c2cc1OC be said to have thermal shift delta Tm at or above 0.4 °C?
[A] condition met

[Q] Can COc1cc2c(Oc3ccc4[nH]c(C)cc4c3F)ncnc2cc1OCCCN1CCCC1 be said to have thermal shift delta Tm at or above 0.4 °C?
[A] condition met

[Q] Can O=C1NC(=O)/C(=C/c2ccc3c(c2)OC(F)(F)O3)S1 be said to have thermal shift delta Tm at or above 0.4 °C?
[A] condition met

[Q] Can COc1ccc2[nH]cc(/C=C3\C(=O)Nc4ccc(NC(=O)CCN5CCCCC5)cc43)c2c1 be said to have thermal shift delta Tm at or above 0.4 °C?
[A] condition met

[Q] Can COc1ncc(-c2ccc3nccc(-c4ccnnc4)c3c2)cc1NS(=O)(=O)c1ccc(F)cc1F be said to have thermal shift delta Tm at or above 0.4 °C?
[A] condition met

[Q] Can CC(C)CCN1c2nc(Nc3cc(F)c(O)c(F)c3)ncc2N(C)C(=O)C1C (stereo not given) be said to have thermal shift delta Tm at or above 0.4 °C?
[A] condition met

[Q] Can COc1cc(N2CCN(C)CC2)ccc1Nc1ncc2c(n1)N(C)c1ccccc1C(=O)N2 be said to have thermal shift delta Tm at or above 0.4 °C?
[A] condition not met

[Q] Can Nc1ncccc1-c1nc2ccc(-c3ccccc3)nc2n1-c1ccc(C2(N)CCC2)cc1 [Miransertib (ARQ 092) HCl] be said to have thermal shift delta Tm at or above 0.4 °C?
[A] condition not met

[Q] Can Cn1c(Nc2ccc(C(F)(F)F)cc2)nc2cc(Oc3ccnc(-c4ncc(C(F)(F)F)[nH]4)c3)ccc21 be said to have thermal shift delta Tm at or above 0.4 °C?
[A] condition met

[Q] Can CC(C)(C)c1ccc(S(=O)(=O)/C=C/C#N)cc1 be said to have thermal shift delta Tm at or above 0.4 °C?
[A] condition met

[Q] Can COc1cc(Nc2ncc(F)c(Nc3ccc4c(n3)NC(=O)C(C)(C)O4)n2)cc(OC)c1OC be said to have thermal shift delta Tm at or above 0.4 °C?
[A] condition met

[Q] Can Cc1nc(Nc2cnn(C3CCNCC3)c2)nc2c1N(C)C(=O)c1cc3ccccc3cc1N2C be said to have thermal shift delta Tm at or above 0.4 °C?
[A] condition met

[Q] Can COc1cc(Nc2ncc(F)c(Nc3ccc4c(n3)N(COP(=O)(O)O)C(=O)C(C)(C)O4)n2)cc(OC)c1OC [Fostamatinib (R788)] be said to have thermal shift delta Tm at or above 0.4 °C?
[A] condition met

[Q] Can CC#CC(=O)N1CCC[C@H]1c1nc(-c2ccc(C(=O)Nc3ccccn3)cc2)c2c(N)nccn12 be said to have thermal shift delta Tm at or above 0.4 °C?
[A] condition met

[Q] Can CNc1nc(Nc2cn(C(C)(C)C#N)nc2C)ncc1C(F)(F)F be said to have thermal shift delta Tm at or above 0.4 °C?
[A] condition not met

[Q] Can CC(C)(CO)n1cc(C(=O)c2cncc(NC(=O)Cc3ccc(Cl)cn3)c2)c2cnc(N)nc21 be said to have thermal shift delta Tm at or above 0.4 °C?
[A] condition not met

[Q] Can O=C(c1ccc(F)c(F)c1Nc1ccc(I)cc1F)N1CC(O)([C@@H]2CCCCN2)C1 be said to have thermal shift delta Tm at or above 0.4 °C?
[A] condition not met

[Q] Can CO[C@H]1CC[C@H](N2C(=O)CNc3ncc(-c4ccc(C(C)(C)O)nc4)nc32)CC1 be said to have thermal shift delta Tm at or above 0.4 °C?
[A] condition not met

[Q] Can CNC(=O)c1cc(Oc2ccc(NC(=O)Nc3ccc(Cl)c(C(F)(F)F)c3)cc2)ccn1 [Sorafenib] be said to have thermal shift delta Tm at or above 0.4 °C?
[A] condition met

[Q] Can CN1CCN(c2cccc(Nc3nc4c(-c5ccc(S(C)(=O)=O)cc5)cccn4n3)c2)CC1 be said to have thermal shift delta Tm at or above 0.4 °C?
[A] condition met

[Q] Can O=c1cc(N2CCOCC2)oc2c(-c3ccc4c(c3)OCCO4)csc12 be said to have thermal shift delta Tm at or above 0.4 °C?
[A] condition not met

[Q] Can CN(C[C@@H]1COCCO1)S(=O)(=O)Nc1ccc2ccc3ncc(-c4cnn(C)c4)cc3c(=O)c2c1 be said to have thermal shift delta Tm at or above 0.4 °C?
[A] condition met

[Q] Can Cc1ccc(C(=O)Nc2ccc(CN3CCN(C)CC3)c(C(F)(F)F)c2)cc1C#Cc1cnc2[nH]ncc2c1 [GZD824 Dimesylate] be said to have thermal shift delta Tm at or above 0.4 °C?
[A] condition met

[Q] Can CCN(CC)CCCC(C)Nc1nc(C)cc(Nc2ccc3nc(C)cc(N)c3c2)n1 (stereo not given) be said to have thermal shift delta Tm at or above 0.4 °C?
[A] condition not met

Provenance of the data: the supplement of paper PMC9694430
